Target Under Test: Death-associated protein kinase 1 (Homo sapiens) (UniProt P53355);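 further: each value is a mean inhibition figure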
Condition Notes: at 1 µM
Readout Type: inhibition (%)
One number for each entry, in %.

Recorded inhibition, per entry:
CN(C)c1cc2c(Nc3ccc4nc(Cc5ccccc5)[nH]c4c3)ncnc2cn1
7.51
Cc1nnc(-c2ccc(C)c(-c3ccc(C(=O)Nc4cccc(C#N)c4)cc3)c2)o1
2.66

Field: inhibition. Fill in for each record below.
1. CC1=C(C(=O)Nc2ccc3[nH]ncc3c2)C(c2ccc3ccccc3c2)CC(=O)N1 (stereo not given)
2. CC(=O)Nc1cccc(C#Cc2cncnc2Nc2ccc(OCc3cccc(F)c3)c(Cl)c2)n1
3. O=C1NC(=O)C(c2cccc(Cl)c2)=C1Nc1ccc(O)c(Cl)c1

1. 0.51
2. 7.63
3. 2.13

====

Please provide measured inhibition for the entries that follow.
Target Under Test: Mitogen-activated protein kinase 9 (Homo sapiens) (UniProt P45984);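 further: reported figure is the mean inhibition of JNK2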
Sequence (P45984 whole entry, looked up): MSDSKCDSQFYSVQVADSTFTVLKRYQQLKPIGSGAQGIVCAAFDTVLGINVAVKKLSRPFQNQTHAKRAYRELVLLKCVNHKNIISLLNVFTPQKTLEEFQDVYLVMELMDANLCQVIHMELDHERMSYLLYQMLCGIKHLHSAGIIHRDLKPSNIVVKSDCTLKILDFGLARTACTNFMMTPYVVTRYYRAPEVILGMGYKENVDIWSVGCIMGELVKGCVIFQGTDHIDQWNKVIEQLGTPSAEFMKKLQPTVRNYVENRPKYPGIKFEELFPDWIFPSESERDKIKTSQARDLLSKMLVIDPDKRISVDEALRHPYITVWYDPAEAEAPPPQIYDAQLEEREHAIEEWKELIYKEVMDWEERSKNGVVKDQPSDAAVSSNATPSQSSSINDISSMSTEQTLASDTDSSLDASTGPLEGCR
Condition Notes: at 1 µM
Answers are plain numbers, in %.

Field: inhibition. Fill in for each record below.
1. CC1=C(C(=O)Nc2ccc3[nH]ncc3c2)C(c2ccc(F)cc2)NC(=O)N1 (stereo not given)
2. CC1=C(C(=O)Nc2ccc3[nH]ncc3c2)C(c2ccc(Cl)c(Cl)c2)CC(=O)N1 (stereo not given)
3. NS(=O)(=O)c1cccc(-c2ccc3c(NC(=O)C4CC4)n[nH]c3c2)c1

[0.78, 2.79, -5.26]

Field: inhibition. Fill in for each record below.
1. Nc1ncnc2occ(-c3ccc(NC(=O)Nc4cccc(C(F)(F)F)c4)cc3)c12
2. CCn1c(-c2nonc2N)nc2ccncc21
3. COc1cc2c(cc1Nc1nc(N3CCc4ccccc43)c3cc[nH]c3n1)N(C(=O)CN(C)C)CC2
4. COc1ccc(-c2nn3ncccc3c2-c2ccnc(Nc3ccc(Cl)c(C(F)(F)F)c3)n2)cc1
5. COc1cc2ncn(-c3cc(OCc4ccccc4Cl)c(C(N)=O)s3)c2cc1OC
6. COc1ccc2cc(-c3c(-c4ccncc4)nc(-c4ccc([S+](C)[O-])cc4)n3C)ccc2c1 (stereo not given)

[14.5, 2.53, 1.82, 4.38, 4.49, 4.27]

====

Target Under Test: Protein kinase C beta type (Homo sapiens) (UniProt P05771);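 further: GSK PKIS screen, average inhibition of the PKC-beta2 splice variant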
Sequence (P05771 2-671 limits assumed): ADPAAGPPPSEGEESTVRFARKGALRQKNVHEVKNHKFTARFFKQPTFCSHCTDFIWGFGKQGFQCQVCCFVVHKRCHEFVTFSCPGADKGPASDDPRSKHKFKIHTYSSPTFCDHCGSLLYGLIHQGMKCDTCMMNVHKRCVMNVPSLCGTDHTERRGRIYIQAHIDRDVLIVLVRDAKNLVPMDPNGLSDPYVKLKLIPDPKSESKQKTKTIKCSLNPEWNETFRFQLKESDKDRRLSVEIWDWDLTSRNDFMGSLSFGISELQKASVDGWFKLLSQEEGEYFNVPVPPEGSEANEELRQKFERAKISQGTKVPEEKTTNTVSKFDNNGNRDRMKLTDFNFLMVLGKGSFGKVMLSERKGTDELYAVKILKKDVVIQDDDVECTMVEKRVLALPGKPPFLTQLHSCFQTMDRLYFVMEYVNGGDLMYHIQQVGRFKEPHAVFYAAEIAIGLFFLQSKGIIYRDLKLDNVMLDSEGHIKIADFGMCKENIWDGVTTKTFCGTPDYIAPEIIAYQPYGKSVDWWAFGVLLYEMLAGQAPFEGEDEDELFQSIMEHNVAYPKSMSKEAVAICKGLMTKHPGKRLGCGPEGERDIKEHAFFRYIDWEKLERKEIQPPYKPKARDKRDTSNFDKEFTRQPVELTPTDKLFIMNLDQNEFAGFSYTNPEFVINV
Condition Notes: at 1 µM
Description: GSK_PKIS: PKC-beta2 (splice variant) mean inhibition at 1 uM [Nanosyn]
Please provide measured inhibition for the entries that follow.
One number for each entry, in %.

Field: inhibition. Fill in for each record below.
1. Cc1ccc(C(=O)NC2CCCCC2)cc1-c1ccc(C(=O)NCC2CC2)cc1
2. [O-][S+]1CCN(Cc2ccc(-c3ccc4ncnc(Nc5ccc(OCc6ccccc6)c(F)c5)c4c3)o2)CC1
3. COc1cc2ncn(-c3cc(O[C@H](C)c4ccccc4Cl)c(C(N)=O)s3)c2cc1OC

1: 3.12; 2: 0.5; 3: 3.52

====

Target Under Test: Serine/threonine-protein kinase MRCK alpha (Homo sapiens) (UniProt Q5VT25);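 further: each value is an averaged percent inhibition of MRCK alpha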
Sequence (Q5VT25 whole entry): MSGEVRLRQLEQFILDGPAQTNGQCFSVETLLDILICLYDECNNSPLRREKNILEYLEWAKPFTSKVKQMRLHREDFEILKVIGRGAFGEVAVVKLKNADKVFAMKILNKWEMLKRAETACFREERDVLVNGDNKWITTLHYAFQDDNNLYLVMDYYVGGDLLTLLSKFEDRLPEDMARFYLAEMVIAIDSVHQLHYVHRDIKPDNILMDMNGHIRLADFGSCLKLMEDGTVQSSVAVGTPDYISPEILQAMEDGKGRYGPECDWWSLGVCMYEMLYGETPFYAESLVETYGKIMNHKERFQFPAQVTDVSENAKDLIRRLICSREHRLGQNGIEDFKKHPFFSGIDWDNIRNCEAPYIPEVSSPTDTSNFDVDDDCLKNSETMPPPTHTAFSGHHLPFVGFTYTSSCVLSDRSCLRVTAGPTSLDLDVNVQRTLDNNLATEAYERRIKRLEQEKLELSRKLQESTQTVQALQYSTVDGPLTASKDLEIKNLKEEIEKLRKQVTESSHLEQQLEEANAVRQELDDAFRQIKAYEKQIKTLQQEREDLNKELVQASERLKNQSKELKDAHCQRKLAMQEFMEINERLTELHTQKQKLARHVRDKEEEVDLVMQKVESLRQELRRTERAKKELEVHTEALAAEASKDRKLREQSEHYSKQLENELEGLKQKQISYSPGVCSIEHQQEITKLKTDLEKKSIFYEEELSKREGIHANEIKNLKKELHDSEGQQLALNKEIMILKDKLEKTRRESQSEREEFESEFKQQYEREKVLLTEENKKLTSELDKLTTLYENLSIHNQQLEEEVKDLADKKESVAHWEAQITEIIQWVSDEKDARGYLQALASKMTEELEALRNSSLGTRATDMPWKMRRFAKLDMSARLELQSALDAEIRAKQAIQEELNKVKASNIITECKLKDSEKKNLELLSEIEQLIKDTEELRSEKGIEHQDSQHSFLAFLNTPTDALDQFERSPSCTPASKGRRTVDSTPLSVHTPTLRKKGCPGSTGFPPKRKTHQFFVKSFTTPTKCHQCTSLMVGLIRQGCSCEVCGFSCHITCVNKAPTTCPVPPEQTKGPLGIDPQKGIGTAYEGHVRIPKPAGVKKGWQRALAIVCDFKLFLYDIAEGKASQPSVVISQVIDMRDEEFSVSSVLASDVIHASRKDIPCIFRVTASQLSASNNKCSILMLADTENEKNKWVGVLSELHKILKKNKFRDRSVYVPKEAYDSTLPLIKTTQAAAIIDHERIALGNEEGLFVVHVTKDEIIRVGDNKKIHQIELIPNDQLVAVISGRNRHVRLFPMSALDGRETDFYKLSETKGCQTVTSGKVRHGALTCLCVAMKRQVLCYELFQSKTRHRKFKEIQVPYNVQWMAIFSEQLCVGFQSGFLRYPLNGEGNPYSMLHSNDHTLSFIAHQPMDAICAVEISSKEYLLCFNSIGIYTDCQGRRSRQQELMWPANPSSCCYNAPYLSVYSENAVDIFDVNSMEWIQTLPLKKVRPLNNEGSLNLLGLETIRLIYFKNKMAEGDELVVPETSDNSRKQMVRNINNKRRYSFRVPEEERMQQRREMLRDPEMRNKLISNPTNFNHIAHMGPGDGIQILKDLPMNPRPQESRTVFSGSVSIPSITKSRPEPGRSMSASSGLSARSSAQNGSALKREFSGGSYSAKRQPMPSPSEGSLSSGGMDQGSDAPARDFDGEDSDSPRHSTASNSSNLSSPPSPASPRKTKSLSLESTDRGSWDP
Condition Notes: at 1 µM
Readout Type: inhibition (%)
One number for each entry, in %.

CC1=C(C(=O)Nc2ccc3[nH]ncc3c2)C(c2ccc3ccccc3c2)CC(=O)N1 (stereo not given)
22.7

Field: inhibition. Fill in for each record below.
1. NS(=O)(=O)c1ccc(N/N=C2\C(=O)Nc3ccc(C(=O)NCCc4c[nH]cn4)cc32)cc1
2. O=C1NC(=O)C(c2cccc(Cl)c2)=C1Nc1ccc(O)c(Cl)c1
3. COc1cc(C=NNc2ncnc3c2cnn3-c2ccccc2)ccc1O
4. CS(=O)(=O)CCNCc1nc(-c2ccc3ncnc(Nc4ccc(F)c(Cl)c4)c3c2)cs1
5. O=C1NC(=O)C(N2CCc3ccccc32)=C1c1ccc(Cl)cc1

2.43
3.73
3.38
3.22
0.98

====

Target Under Test: Serine/threonine-protein kinase D2 (Homo sapiens) (UniProt Q9BZL6);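 further: mean value of PRKD2 inhibition, from the GSK PKIS screening panel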
Sequence (Q9BZL6 whole entry): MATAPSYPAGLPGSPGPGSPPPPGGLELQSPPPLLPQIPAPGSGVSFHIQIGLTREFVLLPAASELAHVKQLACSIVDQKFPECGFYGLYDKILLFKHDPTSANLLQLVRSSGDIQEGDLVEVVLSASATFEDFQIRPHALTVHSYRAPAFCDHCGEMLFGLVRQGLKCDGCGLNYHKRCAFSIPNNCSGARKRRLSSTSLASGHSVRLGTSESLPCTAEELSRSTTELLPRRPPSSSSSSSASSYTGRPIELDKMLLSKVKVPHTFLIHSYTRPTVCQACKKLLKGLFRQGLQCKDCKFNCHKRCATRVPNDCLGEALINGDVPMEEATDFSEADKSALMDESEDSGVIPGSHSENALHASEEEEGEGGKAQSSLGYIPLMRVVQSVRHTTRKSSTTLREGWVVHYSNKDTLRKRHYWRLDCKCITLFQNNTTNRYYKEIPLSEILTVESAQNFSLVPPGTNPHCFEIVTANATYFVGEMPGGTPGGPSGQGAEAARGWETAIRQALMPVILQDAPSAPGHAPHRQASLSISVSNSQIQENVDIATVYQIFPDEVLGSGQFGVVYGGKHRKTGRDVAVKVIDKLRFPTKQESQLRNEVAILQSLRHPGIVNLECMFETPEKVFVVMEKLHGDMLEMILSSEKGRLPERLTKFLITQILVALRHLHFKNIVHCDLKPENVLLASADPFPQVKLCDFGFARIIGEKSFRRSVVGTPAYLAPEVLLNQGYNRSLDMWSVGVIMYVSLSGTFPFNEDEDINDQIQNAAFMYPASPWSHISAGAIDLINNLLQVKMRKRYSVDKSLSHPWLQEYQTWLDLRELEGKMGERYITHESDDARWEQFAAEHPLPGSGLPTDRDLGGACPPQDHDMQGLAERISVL
Condition Notes: at 1 µM
Readout Type: inhibition

Recorded inhibition, per entry:
CS(=O)(=O)CCN(CC#N)Cc1ccc(-c2ccc3ncnc(Nc4ccc(OCc5cccc(F)c5)c(Cl)c4)c3c2)o1
-4.76%
COc1ccc(-c2coc3ncnc(N)c23)cc1
6.47%
NC(=O)c1ccc(-c2nc(-c3ccccn3)c(-c3ccc4c(c3)OCO4)[nH]2)cc1
6.06%
CN(C)c1cc2c(Nc3ccc4nc(Cc5ccccc5)[nH]c4c3)ncnc2cn1
5.15%

Now turn to the next molecule.
So what does the record say about inhibition for COc1cc2ncn(-c3cc(O[C@H](C)c4ccccc4Cl)c(C(N)=O)s3)c2cc1OC ?
4.06%

====

Target Under Test: Dual specificity protein kinase CLK3 (Homo sapiens)
Condition Notes: at 0.1 µM
Description: GSK_PKIS: CLK3 mean inhibition at 0.1 uM [Nanosyn]
Please provide measured inhibition for the entries that follow.
One number for each entry, in %.

Recorded inhibition, per entry:
CCn1c(-c2nonc2N)nc2cnc(Oc3cccc(NC(=O)c4ccc(OCCN5CCOCC5)cc4)c3)cc21
0.57
Nc1nc(-c2ccccn2)c(-c2ccc3ncccc3n2)s1
2.95

Now turn to the next molecule.
So what does the record say about inhibition for CCn1c(-c2nonc2N)nc2cncc(C(=O)N3CC[C@H](N)C3)c21 ?
1.31

====

Target Under Test: Mitogen-activated protein kinase kinase kinase kinase 4 (Homo sapiens)
Condition Notes: at 0.1 µM
Description: GSK_PKIS: MAP4K4 mean inhibition at 0.1 uM [Nanosyn]
Please provide measured inhibition for the entries that follow.
One number for each entry, in %.

NC(=O)c1cccc(Nc2nccc(Nc3cccc4[nH]ncc34)n2)c1
2.67
CCN1CCC(CC(=O)Nc2n[nH]c3nc(-c4cccs4)c(Br)cc23)CC1
0.23
O=C(Nc1n[nH]c2nc(-c3ccco3)c(Br)cc12)C1CC1
4.76
CCc1cccc(NC(=O)Nc2ccc(Oc3ccc4nc(NC(=O)OC)[nH]c4c3)cc2)c1
1.49
NC(=O)c1ccc(-c2nc(-c3ccccn3)c(-c3ccc4c(c3)OCO4)[nH]2)cc1
1.99

Field: inhibition. Fill in for each record below.
1. NS(=O)(=O)c1cccc(-c2ccc3c(NC(=O)C4CC4)n[nH]c3c2)c1
2. O=C1Nc2ccc(C(=O)c3ccco3)cc2C1=Cc1cc(Cl)c(O)c(Cl)c1

[1.63, 27.5]

Field: inhibition. Fill in for each record below.
1. Nc1nc(-c2ccccn2)c(-c2ccc3ncccc3n2)s1
2. Fc1cccc(COc2ccc(Nc3ncnc4sc(-c5cccs5)cc34)cc2Cl)c1
3. CC(=O)Nc1cccc(C#Cc2cncnc2Nc2ccc(OCc3cccc(F)c3)c(Cl)c2)n1

1: 5.35; 2: 1.29; 3: -0.3

Field: inhibition. Fill in for each record below.
1. CCn1c(-c2nonc2N)nc2cncc(C(=O)N3CCNCC3)c21
2. COc1cc(C=NNc2ncnc3c2cnn3-c2ccccc2)ccc1O
3. COc1cc2c(cc1Nc1nc(N3CCc4ccccc43)c3cc[nH]c3n1)N(C(=O)CN(C)C)CC2
4. NCc1ccc(-c2nc(-c3ccc(Cl)c(O)c3)c(-c3ccncc3)[nH]2)cc1
5. Cc1cccc(-c2n[nH]cc2-c2ccc3ncccc3n2)n1
6. CCn1c(-c2nonc2N)nc2c(C#CC(C)(C)O)nc(OC[C@@H](N)c3ccccc3)cc21

3.11
28.1
1.37
4.02
5.33
1.21

====

Please provide measured inhibition for the entries that follow.
Target Under Test: RAC-alpha serine/threonine-protein kinase (Homo sapiens);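 further: reported values are mean inhibition figures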
Condition Notes: at 0.1 µM
Answers are plain numbers, in %.

[O-][S+]1CCN(Cc2ccc(-c3ccc4ncnc(Nc5ccc(OCc6ccccc6)c(F)c5)c4c3)o2)CC1
0.83

Field: inhibition. Fill in for each record below.
1. CC(=O)Nc1cccc(C#Cc2cncnc2Nc2ccc(OCc3cccc(F)c3)c(Cl)c2)n1
2. CS(=O)(=O)CCNCc1nc(-c2ccc3ncnc(Nc4ccc(F)c(Cl)c4)c3c2)cs1

-0.69
0.62

====

Target Under Test: RAC-gamma serine/threonine-protein kinase (Homo sapiens)
Condition Notes: at 0.1 µM
Description: GSK_PKIS: AKT3 mean inhibition at 0.1 uM [Nanosyn]
Readout Type: inhibition (%)
Numbers only, in %.

Recorded inhibition, per entry:
Nc1nc(-c2ccc3c(c2)C(=Cc2cc(Br)c(O)c(Br)c2)C(=O)N3)cs1
-2.54
COc1cc2ncn(-c3cc(OCc4ccccc4Cl)c(C(N)=O)s3)c2cc1OC
1.15
CCCN1CCC(Oc2cc(Nc3nc(Nc4cccc(F)c4C(N)=O)c4cc[nH]c4n3)c(OC)cc2Cl)CC1
1.42
CS(=O)(=O)Nc1ccc(N/C=C2\C(=O)Nc3ccccc32)cc1
-3.25

Now turn to the next compound.
So what does the record say about inhibition for O=C(Nc1n[nH]c2nc(-c3ccco3)c(Br)cc12)C1CC1 ?
0.47

====

Please provide measured inhibition for the entries that follow.
Target Under Test: Homeodomain-interacting protein kinase 4 (Homo sapiens);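 further: reported as mean inhibition, part of the GSK PKIS dataset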
Condition Notes: at 0.1 µM
Answers are plain numbers, in %.

Recorded inhibition, per entry:
O=C1Nc2ccc(C(=O)c3ccco3)cc2C1=Cc1cc(Cl)c(O)c(Cl)c1
4.69
COC(=O)Nc1nc2cc(Oc3ccc(NC(=O)Nc4cccc(C(=O)O)c4)cc3)ccc2[nH]1
0.29
CCn1c(-c2nonc2N)nc2c(C#CC(C)(C)O)nc(OC[C@@H](N)c3ccccc3)cc21
1.04

Field: inhibition. Fill in for each record below.
1. Nc1nc(-c2ccccn2)c(-c2ccc3ncccc3n2)s1
2. CNC(=O)c1cncc(/C=C/c2c(Cl)cccc2Cl)c1
3. NS(=O)(=O)c1ccc(N/N=C2\C(=O)Nc3ccc(C(=O)NCCc4c[nH]cn4)cc32)cc1
4. COc1cc2ncn(-c3cc(OCc4ccccc4C(F)(F)F)c(C(N)=O)s3)c2cc1OC
5. CS(=O)(=O)CCN(CC#N)Cc1ccc(-c2ccc3ncnc(Nc4ccc(OCc5cccc(F)c5)c(Cl)c4)c3c2)o1
6. COc1cccc(-n2ncc3c(N/N=C/c4cccc(F)c4)ncnc32)c1

1. 3.92
2. 1.25
3. 3.77
4. 10.1
5. 0.31
6. 0.87
